// provenance: ChEMBL document CHEMBL5543093

Assay: AUC (0 to infinity) in Sprague-Dawley rat at 20 mg/kg, po
Type: ADME, organism-based
Conditions: in vivo

smiles.str: COc1ccc2[nH]cc(CCNC(=O)C3(NC(=O)Oc4ccccc4)CCCCC3)c2c1
AUC(0-inf): 159 ng·h/mL

---

Assay: Tmax in Sprague-Dawley rat at 20 mg/kg, po
Format: ADME, organism-based
Details: in vivo

smiles.str: COc1ccc2[nH]cc(CCNC(=O)C3(NC(=O)Oc4ccccc4)CCCCC3)c2c1
Tmax: 1.44 h

---

Assay: Oral bioavailability in Sprague-Dawley rat at 20 mg/kg
Format: ADME, organism-based
Details: in vivo

smiles.str: COc1ccc2[nH]cc(CCNC(=O)C3(NC(=O)Oc4ccccc4)CCCCC3)c2c1
bioavailability / %: 27.5

---

Test: Half life in Sprague-Dawley rat at 10 mg/kg, iv
Type: ADME, organism-based
Details: in vivo

smiles.str: COc1ccc2[nH]cc(CCNC(=O)C3(NC(=O)Oc4ccccc4)CCCCC3)c2c1
units.symbol: h
half-life: 1.34

---

Molecular target: Transient receptor potential cation channel subfamily V member 1 (Homo sapiens, UniProt Q8NER1)
Sequence (Q8NER1 whole entry): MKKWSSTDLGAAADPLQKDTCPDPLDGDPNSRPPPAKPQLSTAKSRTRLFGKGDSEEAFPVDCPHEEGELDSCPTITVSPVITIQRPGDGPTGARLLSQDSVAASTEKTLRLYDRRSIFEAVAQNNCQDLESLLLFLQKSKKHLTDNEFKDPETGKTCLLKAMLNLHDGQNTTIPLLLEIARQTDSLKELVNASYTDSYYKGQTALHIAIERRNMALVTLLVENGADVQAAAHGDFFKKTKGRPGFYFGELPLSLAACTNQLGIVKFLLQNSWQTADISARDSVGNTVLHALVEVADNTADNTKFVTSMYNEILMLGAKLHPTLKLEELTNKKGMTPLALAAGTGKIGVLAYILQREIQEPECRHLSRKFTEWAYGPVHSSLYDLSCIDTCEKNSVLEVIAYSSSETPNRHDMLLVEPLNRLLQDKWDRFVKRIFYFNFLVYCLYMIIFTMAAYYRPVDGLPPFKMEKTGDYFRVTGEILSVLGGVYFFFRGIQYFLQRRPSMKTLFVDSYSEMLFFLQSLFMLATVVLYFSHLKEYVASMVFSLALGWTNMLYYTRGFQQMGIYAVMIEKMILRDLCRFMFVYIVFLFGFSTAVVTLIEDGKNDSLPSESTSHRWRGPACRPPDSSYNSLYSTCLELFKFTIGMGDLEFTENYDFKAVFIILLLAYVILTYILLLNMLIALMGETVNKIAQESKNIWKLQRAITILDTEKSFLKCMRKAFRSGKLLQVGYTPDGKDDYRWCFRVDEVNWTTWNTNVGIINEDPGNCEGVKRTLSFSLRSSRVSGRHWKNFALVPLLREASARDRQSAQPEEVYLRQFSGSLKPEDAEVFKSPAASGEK
Experiment: Antagonist activity at human TRPV1 receptor assessed as inhibition of TRPV1 channel activation by calcium uptake assay
assay.metric: IC50

smiles.str: CC(C)(C)c1ccc(NC(=O)C2(NC(=O)Oc3ccccc3)CCCCC2)cc1
result: > 10 µM
//
smiles.str: COc1ccc2[nH]cc(CCNC(=O)Oc3ccccc3)c2c1
result: > 10 µM
//
smiles.str: COc1ccc2[nH]cc(CCNC(=O)NC3(C(=O)Nc4ccc(C(C)(C)C)cc4)CCCCC3)c2c1
result: > 10 µM
